Catalogue of IC50, SBE-luciferase reporter in HEK293 cells values
target or system: T1, GDF-11 (UniProt O95390 299-407)
T1 sequence (looked up): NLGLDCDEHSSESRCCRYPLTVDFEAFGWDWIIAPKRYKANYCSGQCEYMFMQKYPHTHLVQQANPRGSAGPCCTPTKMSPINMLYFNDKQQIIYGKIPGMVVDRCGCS
assay details: cell-based or functional assay
parameter measured: IC50, SBE-luciferase reporter in HEK293 cells (µg/mL)

binder	val
ActRIIB-A1 (SEQ ID NO: 120) chimera-Fc protein (Fc fusion, not shown: a dimerising Fc or GST) GAILGRSETQECIYYNANWELERTNQSGLERCEGEQDKRLHCYASWRNSSGTIELVKKGCWLDDFNCYDRQECVATEENPQVYFCCCEGNFCNERFTHLPEAGGPEVTYEPPPTAPT	0.14
ActRIIB-B1B4 (SEQ ID NO: 117) chimera-Fc protein (Fc fusion, Tested as chimera-Fc protein; not shown: linker (if any) and Fc domain) GRGEAETRECLFFNANWELERTNQSGLERCEGEQDKRLHCYASWRNSSGSIEIVKQGCWLDDFNCYDRQECVATEENPQVYFCCCEGNFCNERFTHLPEAGGPEVTYEPPPTAPT	0.77
ActRIIB-A5 (SEQ ID NO: 123) chimera-Fc protein (Fc fusion, Tested as chimera-Fc protein; not shown: linker (if any) and Fc domain) GRGEAETRECIYYNANWELERTNQSGLERCEGEQDKRLHCYASWRNSSGTIELVKKGCWLDDINCYDRTDCVATEENPQVYFCCCEGNFCNERFTHLPEAGGPEVTYEPPPTAPT	0.13
ActRIIB-B2 (SEQ ID NO: 111) chimera-Fc protein (Fc fusion, Tested as chimera-Fc protein; not shown: linker (if any) and Fc domain) GRGEAETRECIYYNANWELERTNQTGVEPCEGEQDKRLHCYASWRNSSGTIELVKKGCWLDDFNCYDRQECVATEENPQVYFCCCEGNFCNERFTHLPEAGGPEVTYEPPPTAPT	0.27
